Reference for the values: PubChem BioAssay AID1347426

Test: Novel Modifiers of Survival Motor Neuron (SMN) Protein: Gene Identification via Genome-wide siRNA Screen;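 note: luminescence tracks full-length SMN protein made from the SMN2 reporter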
Details: HEK293T SMN2-luciferase reporter, siRNA knockdown, 72 h; actives lie on both sides
Procedure: Spinal muscular atrophy (SMA) is the most common neuromuscular autosomal recessive disorder and one of the leading genetic causes of infant death. […] Briefly, 1 pmol of each siRNA was spotted to a well of a 384-well plate (Corning, Corning, NY) and 20 microL of serum-free DMEM containing […] of Lipofectamine RNAiMax (Life Technologies, Carlsbad, CA) was then added to each well. […] Raw luminescence reads were normalized to Ambion(R) Silencer(R) Negative Control #2 siRNA, then log10 transformed. […]
Among all 31,000 sequences or so, about 1,400 (4.5%) were called active. Many of the other results were omitted from the sample, so actives are more common in it than they were.
Lab note: compare median seed-adjusted z-score with 0.2, writing criterion met if less and criterion not met if equal or more.

Sequence entry: GGUUAUGAACUUUGGAUAATT against GPR103
Group label: criterion met

Sequence entry: GUGUAGCACUGACCAAGAATT against RCAN3
Group label: criterion not met

Sequence entry: CCUUGAUAGUGGUCGGGAATT against OSBPL3
Group label: criterion met

Sequence entry: CUUUCGGUUUGAAGAAUAATT against ZC3H15
Group label: criterion met

Sequence entry: GGAUGAUCGAGACCAGUUUTT against XPO4
Group label: criterion not met

Sequence entry: GGAAAGGUCUAGAUCAGGATT against SEL1L2
Group label: criterion met

Sequence entry: AACUCGCUGUUGUACCUGATT against CPSF1
Group label: criterion not met

Sequence entry: CUCCACUGCUUUUCCAAGATT against DBX2
Group label: criterion not met

Sequence entry: GGAGCUACUGAGAACAUAATT against HOXD4
Group label: criterion not met

Sequence entry: GAGAAAAAGCGGAUCAAGATT against GRK6
Group label: criterion met

Sequence entry: GGAACUUUUUCGUCGGUAUTT against RNGTT
Group label: criterion met

Sequence entry: CAUCCGAUCUGAUAGGUCUTT against EFEMP1
Group label: criterion met

---

assay: Novel Modifiers of Survival Motor Neuron (SMN) Protein: Gene Identification via Genome-wide siRNA Screen; conditions: HEK293T SMN2-luciferase reporter, siRNA knockdown, 72 h; actives lie on both sides;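 note: luminescence tracks full-length SMN protein made from the SMN2 reporter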
The campaign covered roughly 31,000 sequences. About 1,400 (4.5%) were called active.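 Rule for the calls: active = median seed-adjusted z-score above 1 or below -1; inactive = the rest.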 The full list was thinned out, with actives kept by preference.
Outcome codes: y = active, n = inactive

Sequence entry: GACCCACAAAUAUACCAUUTT against SMAP1
Group label: n

Sequence entry: GUGCCUAAGUCUUUAGUUUTT against IFI35
Group label: n

Sequence entry: CUCUGGAUUUUGAUAGUUUTT against PPARGC1A
Group label: n

Sequence entry: CCUUGCUUGUGAGAGCAGATT against NPAS1
Group label: n

Sequence entry: ACAAGUUCUUGGAGCCUUATT against ATP1B2
Group label: n

Sequence entry: GCAUGUUAAUGGGUUUAAUTT against GNAS
Group label: n

Sequence entry: CGGCCUUGAUAAACUGAAATT against SNAPC3
Group label: y

Sequence entry: CGAUAUGAUUGGCCAGAGATT against GIPC3
Group label: n

Sequence entry: GCCGAGCUCUUUAUCCUCUTT against TRHDE
Group label: n

Sequence entry: GACAAAUGUUUGGUCAAUUTT against A2BP1
Group label: y

Sequence entry: GCAUCUAUGUCAACAAGAUTT against POLR2I
Group label: y

Sequence entry: GCACACUUGAGUUUGUGUATT against HES6
Group label: n
